Assay: CCTE_Shafer_MEA_dev_per_burst_spike_percent: CCTE's Neural Network Formation Assay for Percent of Spikes in a Burst, Shafer Lab (AID 2284032);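 further: fitted as a decrease in burst spike percentage below DMSO baseline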
Active and inactive are the calls of the source. How the source made its calls: active means hit-call score of the fitted dose curve at least 0.9, where 1 is the maximum; inactive means score below 0.9.
parameter: AC50

Reference set (2 entries):
AC50 recorded for this compound, `C=C(C)C(=O)[O][Sn]([CH2]CCC)([CH2]CCC)[CH2]CCC` , is 0.0389 µM (active)

get_value(item= `CC(=O)[O][Hg][c]1ccccc1` , readout=AC50) returns 0.0114 µM (active)

***
For record CCC(=O)C(CC(C)N(C)C)(c1ccccc1)c1ccccc1 (stereo not given) the listed AC50 is 7.25 µM (active)

Entry `CC(C)(C)c1cc(O)ccc1O` , AC50 reported as 10 µM (active)

====

Experiment: ATG_Sox_CIS: Attagene CIS-FACTORIAL HepG2 Assay for human SRY-box transcription factor (SOX) (AID 2282960)
Conditions: HepG2 Attagene cis-factorial SOX reporter, mRNA; actives raise or lower the signal
Activity calls are given as the source filed them. The calls were made as follows: active = hit-call score of the fitted dose curve at least 0.9, where 1 is the maximum; inactive = score below 0.9.
Pick one: active, inactive

Recorded call for `CCC(=O)c1ccccc1` ?
inactive

Dear all, I need the recorded test outcome for `CCOP(OCC)OCC` , thank you.
inactive

Fill in: this test's call for `CN(C)P(=O)(N(C)C)N(C)C` is ___
inactive

Dear colleague, could you share the recorded outcome for CCC(C)c1cccc(C(C)CC)c1O (stereo not drawn) when you have a moment?
inactive

Each compound tested received a call. Report the one for `COc1ccc(C=O)cc1` .
inactive

Further cases:
# fetch the recorded call for `CC(C)(C)CC(C)(C)c1ccc(O)cc1` here
inactive

Outcome? `CN(C)N=O`
inactive

Name the outcome recorded for `Cc1ccc(N)cc1Cl` in the assay.
inactive

====

Read-out: Tissue plasminogen activator (tPA), PLAT (gene 5327)
Experiment: BSK_BE3C_tPA: BioMAP Diversity Plus: BE3C Assay for Tissue plasminogen activator (tPA) Biomarker Activity (AID 2283041)
Settings: primary human bronchial epithelial cells; actives raise or lower the signal
Active and inactive are the calls of the source. How the source made its calls: active means hit-call score of the fitted dose curve at least 0.9, where 1 is the maximum; inactive means score below 0.9.
parameter: AC50

Known results for compounds:
AC50 reading for `C=CC(=O)OCCCCCC(C)C` : inactive

Note to self: AC50 recorded for `O=c1[nH]c(=O)[nH]c(=O)[nH]1` was inactive

Record `CCOC(=O)/C=C(C)/C=C/C[C@@H](C)CCCC(C)C` , field AC50: 9.78 µM (active)

Memo: `ClC1=C(Cl)[C@]2(Cl)[C@H]3[C@H]([C@H]4C=C[C@H]3C4)[C@@]1(Cl)C2(Cl)Cl` , reported AC50: inactive

More entries:
Just so you know, measured AC50 for `Nc1ncc([N+](=O)[O-])s1` came out at inactive

get_value(item= `C(=NC1CCCCC1)=NC1CCCCC1` , readout=AC50) returns inactive

====

Test: ATG_TGFb_CIS: Attagene CIS-FACTORIAL HepG2 Assay for human Transforming Growth Factor (TGF) (AID 2282967)
Conditions: HepG2 Attagene CIS TGFb reporter, mRNA transcription; actives raise or lower the signal
Active and inactive are the calls of the source. How the source made its calls: active means hit-call score of the fitted dose curve at least 0.9, where 1 is the maximum; inactive means score below 0.9.
Valid outcomes are listed here; reply with one: label 1 (active), label 0 (inactive)

Use these answered entries as a reference point.
Status in this test for `CCCCP(CCCC)CCCC` ?
label 0

Tell me the assay call for `C1CCC(NC2CCCCC2)CC1` please.
label 0

Query: recorded result category for `O=C(Cc1ccccc1)c1ccccc1` in this test
label 0

Could you check what this test reported for `ClCc1cccnc1` ?
label 1

Write down the call the test reported for this molecule. Item: `N#CCc1ccc(Cl)cc1`
label 0

What was the test verdict on CC12CC1(C)C(=O)N(c1cc(Cl)cc(Cl)c1)C2=O (configuration not stated) ?
label 0

Entry `O=C(O)C(Cl)(Cl)Cl` : call = ?
label 0

Which result was noted for this molecule in the test: `Oc1ccc(-c2ccccc2)cc1`
label 0

Any idea what this test logged for `N#CCCO` ?
label 0

Each molecule tested received a call. Report the one for ClC1(Cl)C2(Cl)C3(Cl)C4(Cl)C(Cl)(Cl)C5(Cl)C3(Cl)C1(Cl)C5(Cl)C24Cl (configuration not stated) .
label 0

Next:
Test call, this molecule: `COc1ccc(C=O)cc1`
label 0

Test call, this molecule: `C[C@H]1O[C@@H](O[C@H]2[C@@H](O)C[C@H](O[C@H]3[C@@H](O)C[C@H](O[C@H]4CC[C@@]5(C)[C@H](CC[C@@H]6[C@@H]5CC[C@]5(C)[C@@H](C7=CC(=O)OC7)CC[C@]65O)C4)O[C@@H]3C)O[C@@H]2C)C[C@H](O)[C@@H]1O`
label 0
